This collection of values is drawn from patent US20190127480A1.

SYSTEM NAME: T1, soluble heterodimeric hCD3ε/δ.mFc protein (human)
T1 construct: also called soluble human CD3; soluble heterodimeric CD3 protein
T1 chain 1: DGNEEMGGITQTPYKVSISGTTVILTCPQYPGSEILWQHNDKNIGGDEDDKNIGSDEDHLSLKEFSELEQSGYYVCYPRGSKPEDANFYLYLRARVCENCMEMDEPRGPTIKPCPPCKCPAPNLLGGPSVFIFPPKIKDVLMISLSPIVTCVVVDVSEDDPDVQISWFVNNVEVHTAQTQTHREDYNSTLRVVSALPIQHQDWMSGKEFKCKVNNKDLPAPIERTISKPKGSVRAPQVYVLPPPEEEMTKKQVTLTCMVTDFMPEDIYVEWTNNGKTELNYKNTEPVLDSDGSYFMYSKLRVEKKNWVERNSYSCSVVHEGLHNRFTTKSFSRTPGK
T1 chain 2: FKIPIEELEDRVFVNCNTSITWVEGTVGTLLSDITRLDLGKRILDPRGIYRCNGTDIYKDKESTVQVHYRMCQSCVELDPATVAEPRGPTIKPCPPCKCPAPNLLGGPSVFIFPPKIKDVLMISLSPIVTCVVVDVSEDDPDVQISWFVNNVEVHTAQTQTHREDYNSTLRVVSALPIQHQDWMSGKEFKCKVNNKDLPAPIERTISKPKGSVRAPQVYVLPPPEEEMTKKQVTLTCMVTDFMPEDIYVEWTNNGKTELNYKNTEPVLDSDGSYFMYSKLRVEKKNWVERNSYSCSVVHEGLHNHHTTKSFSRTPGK
PROCEDURE SUMMARY: SPR MASS-1, 37 C, antigen-capture (hCD3ε/δ.mFc captured), antibody injected
Provide the reported koff of each item.
Answers are plain numbers, in s⁻¹.

{"BINDER": "BSPSMA/CD3-1700 (bispecific antibody, IgG4, V domains shown, modified (chimeric) IgG4 Fc domain; also called PSMA-VH-11810 x CD3-VH-G17) VH 1: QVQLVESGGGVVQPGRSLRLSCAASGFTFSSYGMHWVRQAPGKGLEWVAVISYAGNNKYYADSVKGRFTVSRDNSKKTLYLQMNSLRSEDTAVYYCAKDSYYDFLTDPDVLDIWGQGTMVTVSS VH 2: EVQLVESGGGLVQPGRSLRLSCAASGFTFDDYSMHWVRQAPGKGLEWVSGISWNSGSKGYADSVKGRFTISRDNAKNSLYLQMNSLRAEDTALYYCAKYGSGYGKFYYYGMDVWGQGTTVTVSS VL: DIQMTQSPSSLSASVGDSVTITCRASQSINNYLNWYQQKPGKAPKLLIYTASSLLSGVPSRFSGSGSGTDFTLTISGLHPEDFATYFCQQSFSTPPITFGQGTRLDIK", "koff [s⁻¹]": 0.00307}
{"BINDER": "BSPSMA/CD3-1100 (bispecific antibody, IgG4, V domains shown, modified (chimeric) IgG4 Fc domain; also called PSMA-VH-11810 x CD3-VH-G11) VH 1: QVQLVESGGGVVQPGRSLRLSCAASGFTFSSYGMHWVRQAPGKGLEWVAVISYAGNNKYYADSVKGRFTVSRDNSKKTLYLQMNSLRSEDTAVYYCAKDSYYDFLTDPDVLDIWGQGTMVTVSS VH 2: EVQLVESGGGLVQPGRSLRLSCAASGFTFDDYSMHWVRQAPGKGLEWVSGISWNSGSKGYADSVKGRFTISRDNAKNSLYLQMNSLRAEDTALYYCAKYGSGYGKFYHYGMDVWGQGTTVTVSS VL: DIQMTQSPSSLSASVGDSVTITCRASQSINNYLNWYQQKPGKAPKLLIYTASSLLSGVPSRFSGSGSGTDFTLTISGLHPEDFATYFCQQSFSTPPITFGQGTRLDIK", "koff [s⁻¹]": 0.00102}
{"BINDER": "BSPSMA/CD3-1200 (bispecific antibody, IgG4, V domains shown, modified (chimeric) IgG4 Fc domain; also called PSMA-VH-11810 x CD3-VH-G12) VH 1: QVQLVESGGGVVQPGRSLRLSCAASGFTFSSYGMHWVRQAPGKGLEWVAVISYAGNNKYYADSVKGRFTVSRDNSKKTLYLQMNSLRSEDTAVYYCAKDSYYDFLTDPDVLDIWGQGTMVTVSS VH 2: EVQLVESGGGLVQPGRSLRLSCAASGFTFDDYSMHWVRQAPGKGLEWVSGISWNSGSIGYADSVKGRFTISRDNAKNSLYLQMNSLRAEDTALYYCAKDGSGYGKFYHYGLDVWGQGTTVTVSS VL: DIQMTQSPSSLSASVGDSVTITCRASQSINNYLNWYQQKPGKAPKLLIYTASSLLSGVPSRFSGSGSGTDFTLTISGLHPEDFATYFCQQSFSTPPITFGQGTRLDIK", "koff [s⁻¹]": 0.00247}
{"BINDER": "BSPSMA/CD3-1400 (bispecific antibody, IgG4, V domains shown, modified (chimeric) IgG4 Fc domain; also called PSMA-VH-11810 x CD3-VH-G14) VH 1: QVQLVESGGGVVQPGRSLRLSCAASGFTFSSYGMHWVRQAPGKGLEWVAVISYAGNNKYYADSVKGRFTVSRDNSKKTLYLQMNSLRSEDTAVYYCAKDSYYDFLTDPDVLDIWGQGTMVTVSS VH 2: EVQLVESGGGLVQPGRSLRLSCAASGFTFDDYSMHWVRQAPGKGLEWVSGISWNSGSIGYADSVKGRFTISRDNAKNSLYLQMNSLRAEDTALYYCAKYGSGYGKFYHYGMDVWGQGTTVTVSS VL: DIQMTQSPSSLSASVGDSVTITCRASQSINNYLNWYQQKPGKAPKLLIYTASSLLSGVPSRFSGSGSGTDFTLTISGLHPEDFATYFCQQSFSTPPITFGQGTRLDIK", "koff [s⁻¹]": 0.00331}
{"BINDER": "BSPSMA/CD3-1600 (bispecific antibody, IgG4, V domains shown, modified (chimeric) IgG4 Fc domain; also called PSMA-VH-11810 x CD3-VH-G16) VH 1: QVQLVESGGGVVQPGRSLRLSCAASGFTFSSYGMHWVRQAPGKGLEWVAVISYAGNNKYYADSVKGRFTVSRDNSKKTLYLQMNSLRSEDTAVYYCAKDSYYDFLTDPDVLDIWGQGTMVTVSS VH 2: EVQLVESGGGLVQPGRSLRLSCAASGFTFDDYSMHWVRQAPGKGLEWVSGISWNSGSKGYADSVKGRFTISRDNAKNSLYLQMNSLRAEDTALYYCAKDGSGYGKFYHYGMDVWGQGTTVTVSS VL: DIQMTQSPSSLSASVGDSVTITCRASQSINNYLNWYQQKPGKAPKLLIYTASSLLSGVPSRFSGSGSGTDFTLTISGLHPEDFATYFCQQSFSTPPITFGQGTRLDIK", "koff [s⁻¹]": 0.00243}
{"BINDER": "BSPSMA/CD3-1900 (bispecific antibody, IgG4, V domains shown, modified (chimeric) IgG4 Fc domain; also called PSMA-VH-11810 x CD3-VH-G19) VH 1: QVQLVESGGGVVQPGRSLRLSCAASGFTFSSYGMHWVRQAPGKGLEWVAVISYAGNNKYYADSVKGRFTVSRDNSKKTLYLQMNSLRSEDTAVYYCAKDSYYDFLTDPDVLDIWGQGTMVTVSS VH 2: EVQLVESGGGLVQPGRSLRLSCAASGFTFDDYSMHWVRQAPGKGLEWVSGISWNSGSIGYADSVKGRFTISRDNAKNSLYLQMNSLRAEDTALYYCAKDGSGYGKFYHYGMDVWGQGTTVTVSS VL: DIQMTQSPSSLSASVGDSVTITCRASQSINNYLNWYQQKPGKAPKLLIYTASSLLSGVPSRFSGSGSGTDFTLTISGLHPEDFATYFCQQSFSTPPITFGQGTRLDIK", "koff [s⁻¹]": 0.00509}

Now take the following binder into account.
Specify reported koff for the binder shown: BSPSMA/CD3-1300 (bispecific antibody, IgG4, V domains shown, modified (chimeric) IgG4 Fc domain; also called PSMA-VH-11810 x CD3-VH-G13) VH 1: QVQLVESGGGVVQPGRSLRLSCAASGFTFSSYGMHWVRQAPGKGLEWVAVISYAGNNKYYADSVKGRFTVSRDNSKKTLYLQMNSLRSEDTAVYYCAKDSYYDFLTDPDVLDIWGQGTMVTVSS VH 2: EVQLVESGGGLVQPGRSLRLSCAASGFTFDDYSMHWVRQAPGKGLEWVSGISWNSGSIGYADSVKGRFTISRDNAKNSLYLQMNSLRAEDTALYYCAKYGSGYGKFYYYGLDVWGQGTTVTVSS VL: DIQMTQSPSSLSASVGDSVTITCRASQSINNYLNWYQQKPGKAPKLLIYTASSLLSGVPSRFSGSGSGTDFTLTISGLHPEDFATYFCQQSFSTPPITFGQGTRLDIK 0.00248
